PROTOCOL_DESCRIPTION: reversal of MRP1-mediated doxorubicin resistance, pilot screen, H69AR cells, doxorubicin co-treatment (AID 601)
TEST_SETTINGS: H69AR cells + 2 uM doxorubicin, CellTiter-Glo, 72 h; measured here: viability with 2 uM doxorubicin; at 10 µM; stronger effect = lower value
QUANTITY_MEASURED: viability (%)
Numbers only here, please. The scale is %.

Some compounds with recorded viability:
[
  {
    "COMPOUND": "CCc1nnc(NC(=O)c2cc3c(s2)CCCCC3)s1",
    "viability [%]": 78.7
  },
  {
    "COMPOUND": "CCOc1ccccc1NC(=O)CN(c1ccc(C)cc1)S(=O)(=O)c1c(C)noc1C",
    "viability [%]": 90.1
  },
  {
    "COMPOUND": "O=C(NCc1ccco1)c1csc(Nc2ccccc2Cl)n1",
    "viability [%]": 79.4
  },
  {
    "COMPOUND": "N=c1c(C(=O)NCc2ccc3c(c2)OCO3)cc2c(=O)n3ccccc3nc2n1Cc1cccnc1",
    "viability [%]": 79.3
  },
  {
    "COMPOUND": "O=C(NCc1ccco1)c1cc2n(n1)C(C(F)(F)F)CC(c1ccc(F)cc1)N2 (stereo not drawn)",
    "viability [%]": 82.9
  }
]

What value of viability has been recorded for this entry: CCN(C1CCCCC1)S(=O)(=O)c1ccc(OC)c(C)c1 77.4

Requested read-out: viability. Entry: Cc1nnc(SCC(=O)N(C(C)C)C(C)C)nc1C 93.2

Need viability of COc1cc(Br)cc(/C=N/c2ncn[nH]2)c1O , thanks. 104

May I ask what viability has been recorded for Cc1cc(NC(=O)CSc2nc3ccccc3n2CC(=O)N2CCCCC2)no1 ? 77.8

Give its viability value. Item: Cc1cc(NC(=O)CCC(=O)N(CCc2ccccc2)C(C(=O)NC2CCCC2)c2ccco2)no1 (stereo not drawn) 95.1

Give the measured viability of Nn1c(SCC(=O)Nc2ccc(F)cc2)nnc1-c1cccnc1 . 95.5

Look at this compound and give its reported viability. CCn1c(=O)n(CC(=O)Nc2cc(OC)ccc2OC)c(=O)c2ccccc21 69.7

What value of viability has been recorded for this entry: Cc1nnc(SCC(=O)N2CCN(S(=O)(=O)c3ccccc3)CC2)[nH]c1=O 91.2

Consider the compound shown here: Cc1ccc(N=C2NC(=O)CS2)c(C)c1 What is its recorded viability? 96.7

Any idea what its viability is? The compound is CC(=O)Nc1ccc(S(=O)(=O)NCC(C)NS(=O)(=O)c2ccc(NC(C)=O)cc2)cc1 (stereo not drawn) 95.5

Could you share which viability value was measured for CC1=C(C(=O)NC2CCCC(C)C2C)C2(CCCCC2)OC1=O (stereo not drawn) ? 87.7

Recorded viability for Cc1cc(=O)n(C)c(=O)n1CCCCCN1CCCC1 , please? 85.2

Endpoint output: viability of COC(=O)c1c(-c2cccs2)csc1NC(=O)CN1CCOCC1 . Value? 81.4

Need viability of Cc1ccc(-n2c(Cn3cnc4ccccc43)nnc2SCC(=O)O)cc1 , thanks. 92.3

I would be grateful if you could share the reported viability for Cn1c(=O)cc(OCC(=O)N2CCN(c3cccc(C(F)(F)F)c3)CC2)c2ccccc21 . 85.3

State the recorded viability for this entry: O=C(O)CN1C(=O)C2(OCCCO2)c2ccccc21 85.4

Would you kindly share the measured viability for CCOc1ccc(Oc2nc(Nc3ccc(C)cc3)nc(N(C)C)n2)nn1 ? 84

Endpoint output: viability of CCC(C(=O)O)n1c(C(F)(F)F)nc2ccccc21 (stereo not drawn) . Value? 99.3
